Just for reference, patent US20080261994A1 is where these values come from.

# assayed-target: UniProt:P03956
# run-description: MMP-1 inhibitory action (Type I collagen Activity Measurement kit, FITC-labeled collagen type I)
# Format: biochemical
# condition-details: MMP-1 inhibitory action, FITC-labeled collagen type I, 37° C. for 3 hr; read-out: IC50 MMP1 (Experimental Example 2)
experimental-readout: IC50

CC(C)(C)C1CC1(NS(=O)(=O)c1ccc(-c2ccc(Cl)cc2)s1)C(=O)O (stereo not drawn) [Example 2-62]    ≥ 10 µM
O=C(O)C1(NS(=O)(=O)N2CCC(Oc3ccc(Cl)cc3)CC2)CC1c1ccccc1 (stereo not drawn) [Example 2-128]    ≥ 10 µM
O=C(O)[C@]1(NS(=O)(=O)c2ccc(-c3cc4ccccc4s3)s2)C[C@@H]1c1ccccc1 [Example 2-113]    < 1 µM
CN1CCN(C(=O)CCc2cccc(C3CC3(NS(=O)(=O)c3ccc(-c4ccc(Cl)cc4)s3)C(=O)O)c2)CC1 (stereo not drawn) [Example 2-210]    ≥ 10 µM
O=C(O)C1(NS(=O)(=O)c2ccc(S(=O)(=O)c3ccccc3)s2)CC1c1ccccc1 (stereo not drawn) [Example 2-81]    ≥ 10 µM
O=C(O)C1(NS(=O)(=O)N2CCN(c3ccc(F)cc3)CC2)CC1c1ccccc1 (stereo not drawn) [Example 2-67]    ≥ 10 µM
COc1ccccc1C1CC1(NS(=O)(=O)c1ccc(-c2ccc(Cl)cc2)s1)C(=O)O (stereo not drawn) [Example 1-4]    ≥ 1 µM
CCC1CC1(NS(=O)(=O)c1ccc(-c2ccc(Cl)cc2)s1)C(=O)O (stereo not drawn) [Example 2-48]    ≥ 10 µM
O=C(O)C1(NS(=O)(=O)c2ccc(-c3ccc(Cl)cc3)s2)C2CCCc3ccccc3C21 (stereo not drawn) [Example 2-8]    ≥ 1 µM
O=C1CCCN1c1ccc(S(=O)(=O)N[C@@]2(C(=O)O)C[C@@H]2c2ccccc2)s1 [Example 2-163]    ≥ 10 µM

Query: Requested field: IC50. Item: O=C(O)C1(NS(=O)(=O)c2ccc(-c3ccc(Cl)cc3)s2)CC1c1cccc(CNc2cccnc2)c1 (stereo not drawn) [Example 2-32]
Result: ≥ 10 µM

Query: Requested field: IC50. Item: O=C(O)[C@]1(NS(=O)(=O)c2ccc(-c3cc4ccccc4o3)s2)C[C@@H]1c1ccccc1 [Example 2-122]
Result: < 1 µM

Query: Requested field: IC50. Item: O=C(O)C1(NS(=O)(=O)c2ccc(OCc3ccc(Cl)cc3Cl)cc2)CC1c1ccccc1 (stereo not drawn) [Example 1-65]
Result: ≥ 10 µM

Query: Requested field: IC50. Item: CN(C)Cc1cccc(C2CC2(NS(=O)(=O)c2ccc(-c3ccc(Cl)cc3)s2)C(=O)O)c1 (stereo not drawn) [Example 1-98]
Result: ≥ 10 µM

Query: Requested field: IC50. Item: CN1CCN(C(=O)Cc2ccccc2C2CC2(NS(=O)(=O)c2ccc(-c3ccc(Cl)cc3)s2)C(=O)O)CC1 (stereo not drawn) [Example 2-195]
Result: ≥ 10 µM

Query: Requested field: IC50. Item: O=C(O)[C@]1(NS(=O)(=O)c2ccc(-c3cc(-c4ccccc4)on3)s2)C[C@@H]1c1ccccc1 [Example 2-114]
Result: < 1 µM

---

Quick list: pIC50 per entry.
# assayed-target: MMP-1 (Homo sapiens, UniProt P03956)
# run-description: MMP-1 inhibitory action (Type I collagen Activity Measurement kit, FITC-labeled collagen type I)
# Type: biochemical
# condition-details: Experimental Example 2; read-out: IC50 MMP1
pIC50: −log10 of the molar value.

Cc1cnn(-c2ccc(S(=O)(=O)N[C@@]3(C(=O)O)C[C@@H]3c3ccccc3)cn2)c1    ≤ 5.00

Query: Requested field: pIC50. Item: O=C(O)C1(NS(=O)(=O)c2ccc(-c3cc(C(F)F)on3)s2)C2CCCc3ccccc3C21 (stereo not drawn)
Result: > 6.00

Query: Requested field: pIC50. Item: CNC(=O)Cc1ccc([C@@H]2C[C@]2(NS(=O)(=O)c2ccc(-c3cc(C(F)(F)F)on3)s2)C(=O)O)cc1
Result: > 6.00

Query: Requested field: pIC50. Item: CC1[C@H](c2ccccc2)[C@]1(NS(=O)(=O)c1ccc(OCc2ccc(Cl)cc2Cl)cc1)C(=O)O (stereo partly drawn)
Result: ≤ 5.00

Query: Requested field: pIC50. Item: CC1C(NS(=O)(=O)c2ccc(-c3cc(C(F)(F)F)on3)s2)(C(=O)O)C1(C)c1ccccc1 (stereo not drawn) [Example 2-598]
Result: ≤ 6.00

---

# assayed-target: MMP-1 (Homo sapiens, UniProt P03956)
# Sequence (P03956 100-469): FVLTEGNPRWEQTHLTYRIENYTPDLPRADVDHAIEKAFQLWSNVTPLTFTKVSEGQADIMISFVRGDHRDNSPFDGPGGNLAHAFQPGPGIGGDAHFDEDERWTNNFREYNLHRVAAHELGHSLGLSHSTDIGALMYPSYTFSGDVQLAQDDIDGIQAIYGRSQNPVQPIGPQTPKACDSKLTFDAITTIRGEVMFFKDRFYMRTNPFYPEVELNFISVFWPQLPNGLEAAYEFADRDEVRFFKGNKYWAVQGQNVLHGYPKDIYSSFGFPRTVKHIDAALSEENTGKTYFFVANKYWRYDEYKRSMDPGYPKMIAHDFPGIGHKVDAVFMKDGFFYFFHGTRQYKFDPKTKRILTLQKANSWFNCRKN
# run-description: MMP-1 inhibitory action (Type I collagen Activity Measurement kit, FITC-labeled collagen type I)
# Assay type: biochemical
# condition-details: MMP-1 inhibitory action, FITC-labeled collagen type I, 37° C. for 3 hr; read-out: IC50 MMP1 (Experimental Example 2)
experimental-readout: IC50

O=C(NCCC(F)(F)F)c1ccc(S(=O)(=O)NC2(C(=O)O)CC2c2ccccc2)s1 (stereo not shown) [Example 2-97]    ≥ 10 µM
CS(=O)(=O)Nc1cccc(C2CC2(NS(=O)(=O)c2ccc(-c3ccc(Cl)cc3)s2)C(=O)O)c1 (stereo not shown) [Example 1-130]    ≥ 1 µM
O=C(O)[C@]1(NS(=O)(=O)c2ccc(-c3cc(C(F)(F)C(F)(F)F)on3)s2)C[C@@H]1c1ccccc1 [Example 2-111]    ≥ 10 µM
O=C(COc1ccccc1C1CC1(NS(=O)(=O)c1ccc(-c2ccc(Cl)cc2)s1)C(=O)O)N1CCOCC1 (stereo not shown) [Example 1-146]    ≥ 10 µM
C[C@]1(c2ccccc2)C[C@@]1(NS(=O)(=O)c1ccc(-c2ccc(Cl)cn2)s1)C(=O)O [Example 2-131]    ≥ 1 µM

Query: Requested field: IC50. Item: O=C(O)[C@]1(NS(=O)(=O)c2ccc(-c3cc(C(F)(F)F)on3)s2)C[C@@H]1c1ccccc1 [Example 2-43]
Result: < 1 µM

Query: Requested field: IC50. Item: CN(C)C(=O)c1ccc(C2CC2(NS(=O)(=O)c2ccc(-c3cc(C(F)(F)F)on3)s2)C(=O)O)cc1 (stereo not shown) [Example 2-266]
Result: ≥ 1 µM

---

# assayed-target: Recombinant Human MMP-13 (Homo sapiens, UniProt P45452)
# Construct: purchased R&D systems 511-MM
# run-description: MMP-13 inhibitory activity (MMP-13 specific fluorescent substrate with quencher)
# Type: biochemical
# condition-details: Experimental Example 3; read-out: IC50 MMP13
experimental-readout: IC50

Some compounds with recorded IC50:
O=C(O)C1(NS(=O)(=O)c2ccc(-c3ccc(Cl)cc3)s2)C2CCC(O)c3ccccc3C21 (stereo not drawn) [Example 2-411]    < 100 nM
CC1[C@H](c2ccccc2)[C@]1(NS(=O)(=O)c1ccc(-c2cc3ccccc3[nH]2)s1)C(=O)O (stereo partly drawn) [Example 2-493]    < 100 nM
CCOC(=O)c1cnn(-c2ccc(S(=O)(=O)N[C@@]3(C(=O)O)C(C)[C@@H]3c3ccccc3)s2)c1 (stereo partly drawn) [Example 2-521]    < 100 nM
CN(C)C(=O)OCC1(c2ccccc2)CC1(NS(=O)(=O)c1ccc(-c2cc(C(F)(F)F)on2)s1)C(=O)O (stereo not drawn) [Example 2-320]    < 1000 nM
CC1[C@H](c2ccccc2)[C@]1(NS(=O)(=O)c1ccc(-c2ccc3nsnc3c2)s1)C(=O)O (stereo partly drawn) [Example 2-497]    < 100 nM

Query: Requested field: IC50. Item: NC(=O)Cc1ccc([C@@H]2C[C@]2(NS(=O)(=O)c2ccc(-c3cc(C(F)(F)F)on3)s2)C(=O)O)cc1 [Example 2-292]
Result: < 100 nM

Query: Requested field: IC50. Item: CC(C)CCN1CCN(S(=O)(=O)N[C@@]2(C(=O)O)C[C@@H]2c2ccccc2)CC1 [Example 2-511]
Result: ≥ 1000 nM

---

# assayed-target: MMP-1 (Homo sapiens)
# Sequence (P03956 100-469): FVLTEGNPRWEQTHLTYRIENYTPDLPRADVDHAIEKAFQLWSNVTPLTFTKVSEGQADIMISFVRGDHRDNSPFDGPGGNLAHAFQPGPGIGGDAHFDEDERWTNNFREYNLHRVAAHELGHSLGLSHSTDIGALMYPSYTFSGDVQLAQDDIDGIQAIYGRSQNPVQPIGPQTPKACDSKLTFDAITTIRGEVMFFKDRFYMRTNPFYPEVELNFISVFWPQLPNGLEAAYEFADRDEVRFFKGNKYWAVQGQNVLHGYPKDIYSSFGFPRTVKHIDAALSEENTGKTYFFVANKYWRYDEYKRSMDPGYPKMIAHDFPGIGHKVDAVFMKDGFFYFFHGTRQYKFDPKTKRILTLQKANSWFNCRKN
# run-description: MMP-1 inhibitory action (Type I collagen Activity Measurement kit, FITC-labeled collagen type I)
# Format: biochemical
# condition-details: MMP-1 inhibitory action, FITC-labeled collagen type I, 37° C. for 3 hr; read-out: IC50 MMP1 (Experimental Example 2)
pIC50: −log10 of the molar value.
Quick list: pIC50 per entry.

Some molecules with recorded pIC50:
O=C(O)C1(NS(=O)(=O)c2ccc(-c3ccc(Cl)cc3)cc2)CC1c1cccc(Oc2ccc(Cl)cc2)c1 (stereo not shown)    ≤ 6.00
O=C(Nc1cccc(C2CC2(NS(=O)(=O)c2ccc(-c3ccc(Cl)cc3)s2)C(=O)O)c1)N1CCOCC1 (stereo not shown)    ≤ 5.00
O=C(O)[C@]1(NS(=O)(=O)c2ccc(-c3ccc(C(F)F)s3)s2)C[C@@H]1c1ccccc1    > 6.00
CCCC#Cc1ccc(S(=O)(=O)N[C@@]2(C(=O)O)C[C@@H]2c2ccccc2)s1    ≤ 5.00
O=C(O)C1(NS(=O)(=O)c2ccc3c(c2)Cc2cc(F)ccc2-3)CC1c1ccccc1 (stereo not shown)    ≤ 5.00
O=C(O)[C@]1(NS(=O)(=O)/C=C/c2cccc(Cl)c2)C[C@@H]1c1ccccc1    ≤ 5.00

Now examine the next entry.
Query: Query for MMP-1 (Homo sapiens): what pIC50 does the record show for O=C(O)c1cccc(C2CC2(NS(=O)(=O)c2ccc(-c3ccc(Cl)cc3)s2)C(=O)O)c1 (stereo not shown) ?
Result: ≤ 6.00
